Assay: in vivo
Details: both, cynomolgus monkey, iv, 10 mg/kg, AUC0-∞, cynomolgus, 10 mg/kg i.v., Day 1, mean
Where a SMILES comes first, the peptide text is derived from it. Bridges are numbered along the chain shown (N, C = ends).
assay-readout: AUC(0-inf)

CC[C@H](C)[C@@H]1NC(=O)[C@@H]2CSSC[C@H](NC(=O)[C@H](CCCNC(=N)N)NC(=O)[C@@H]3CSSC[C@H](NC1=O)C(=O)N[C@@H]([C@@H](C)O)C(=O)N[C@@H](CCCNC(=N)N)C(=O)NCC(=O)N[C@@H](Cc1ccccc1)C(=O)N3)C(=O)N[C@@H](CC(C)C)C(=O)N[C@H]1CSSC[C@H](NC(=O)[C@H](C(C)C)NC(=O)CNC(=O)[C@H](CCCNC(=N)N)NC(=O)[C@H](CCCNC(=N)N)NC1=O)C(=O)N[C@@H](CCCNC(=N)N)C(=O)N2 [Peptide 1] (cyclo(GFCRCLCRRGVCRCICTR); disulfide 3-16, 5-14, 7-12) ... 76800 ng·h/mL

* * *

Test: in vivo
Details: both, Sprague-Dawley, rat, iv, 5 mg/kg/day
Where a SMILES comes first, the peptide text is derived from it. Bridges are numbered along the chain shown (N, C = ends).
assay-readout: AUC(0-inf) (µg·h/mL)

CC[C@H](C)[C@@H]1NC(=O)[C@@H]2CSSC[C@H](NC(=O)[C@H](CCCNC(=N)N)NC(=O)[C@@H]3CSSC[C@H](NC1=O)C(=O)N[C@@H]([C@@H](C)O)C(=O)N[C@@H](CCCNC(=N)N)C(=O)NCC(=O)N[C@@H](Cc1ccccc1)C(=O)N3)C(=O)N[C@@H](CC(C)C)C(=O)N[C@H]1CSSC[C@H](NC(=O)[C@H](C(C)C)NC(=O)CNC(=O)[C@H](CCCNC(=N)N)NC(=O)[C@H](CCCNC(=N)N)NC1=O)C(=O)N[C@@H](CCCNC(=N)N)C(=O)N2 [Peptide 1] (cyclo(GFCRCLCRRGVCRCICTR); disulfide 3-16, 5-14, 7-12) ... 12.7

* * *

Test: in vivo
Settings: both, cynomolgus monkey, iv, 1 mg/kg, AUCτ, cynomolgus, 1 mg/kg i.v., Day 1, mean
Where a SMILES comes first, the peptide text is derived from it. Bridges are numbered along the chain shown (N, C = ends).
assay-readout: AUC (ng·h/mL)

CC[C@H](C)[C@@H]1NC(=O)[C@@H]2CSSC[C@H](NC(=O)[C@H](CCCNC(=N)N)NC(=O)[C@@H]3CSSC[C@H](NC1=O)C(=O)N[C@@H]([C@@H](C)O)C(=O)N[C@@H](CCCNC(=N)N)C(=O)NCC(=O)N[C@@H](Cc1ccccc1)C(=O)N3)C(=O)N[C@@H](CC(C)C)C(=O)N[C@H]1CSSC[C@H](NC(=O)[C@H](C(C)C)NC(=O)CNC(=O)[C@H](CCCNC(=N)N)NC(=O)[C@H](CCCNC(=N)N)NC1=O)C(=O)N[C@@H](CCCNC(=N)N)C(=O)N2 [Peptide 1] (cyclo(GFCRCLCRRGVCRCICTR); disulfide 3-16, 5-14, 7-12) ... 3820

* * *

Assay: in vivo
Details: both, cynomolgus monkey, iv, 15 mg/kg/day, Vss, cynomolgus, 15 mg/kg/day i.v., Day 4, mean
Where a SMILES comes first, the peptide text is derived from it. Bridges are numbered along the chain shown (N, C = ends).
assay-readout: Vd

CC[C@H](C)[C@@H]1NC(=O)[C@@H]2CSSC[C@H](NC(=O)[C@H](CCCNC(=N)N)NC(=O)[C@@H]3CSSC[C@H](NC1=O)C(=O)N[C@@H]([C@@H](C)O)C(=O)N[C@@H](CCCNC(=N)N)C(=O)NCC(=O)N[C@@H](Cc1ccccc1)C(=O)N3)C(=O)N[C@@H](CC(C)C)C(=O)N[C@H]1CSSC[C@H](NC(=O)[C@H](C(C)C)NC(=O)CNC(=O)[C@H](CCCNC(=N)N)NC(=O)[C@H](CCCNC(=N)N)NC1=O)C(=O)N[C@@H](CCCNC(=N)N)C(=O)N2 [Peptide 1] (cyclo(GFCRCLCRRGVCRCICTR); disulfide 3-16, 5-14, 7-12) ... 1.26 L/kg

* * *

Test: in vivo
Conditions: both, cynomolgus monkey, iv, 15 mg/kg/day, MRTinf, cynomolgus, 15 mg/kg/day i.v., Day 4, mean
Where a SMILES comes first, the peptide text is derived from it. Bridges are numbered along the chain shown (N, C = ends).
assay-readout: MRT inf (h)

CC[C@H](C)[C@@H]1NC(=O)[C@@H]2CSSC[C@H](NC(=O)[C@H](CCCNC(=N)N)NC(=O)[C@@H]3CSSC[C@H](NC1=O)C(=O)N[C@@H]([C@@H](C)O)C(=O)N[C@@H](CCCNC(=N)N)C(=O)NCC(=O)N[C@@H](Cc1ccccc1)C(=O)N3)C(=O)N[C@@H](CC(C)C)C(=O)N[C@H]1CSSC[C@H](NC(=O)[C@H](C(C)C)NC(=O)CNC(=O)[C@H](CCCNC(=N)N)NC(=O)[C@H](CCCNC(=N)N)NC1=O)C(=O)N[C@@H](CCCNC(=N)N)C(=O)N2 [Peptide 1] (cyclo(GFCRCLCRRGVCRCICTR); disulfide 3-16, 5-14, 7-12) ... 11.8

* * *

Assay: in vivo
Conditions: both, Sprague-Dawley, rat, iv, 5 mg/kg
Where a SMILES comes first, the peptide text is derived from it. Bridges are numbered along the chain shown (N, C = ends).
assay-readout: AUC(0-inf) (ng·h/mL)

CC[C@H](C)[C@@H]1NC(=O)[C@@H]2CSSC[C@H](NC(=O)[C@H](CCCNC(=N)N)NC(=O)[C@@H]3CSSC[C@H](NC1=O)C(=O)N[C@@H]([C@@H](C)O)C(=O)N[C@@H](CCCNC(=N)N)C(=O)NCC(=O)N[C@@H](Cc1ccccc1)C(=O)N3)C(=O)N[C@@H](CC(C)C)C(=O)N[C@H]1CSSC[C@H](NC(=O)[C@H](C(C)C)NC(=O)CNC(=O)[C@H](CCCNC(=N)N)NC(=O)[C@H](CCCNC(=N)N)NC1=O)C(=O)N[C@@H](CCCNC(=N)N)C(=O)N2 [Peptide 1] (cyclo(GFCRCLCRRGVCRCICTR); disulfide 3-16, 5-14, 7-12) ... 15900

* * *

Experiment: in vivo
Settings: both, cynomolgus monkey, iv, 3 mg/kg, AUC0-∞, cynomolgus, 3 mg/kg i.v., Day 1, mean
Where a SMILES comes first, the peptide text is derived from it. Bridges are numbered along the chain shown (N, C = ends).
assay-readout: AUC(0-inf)

CC[C@H](C)[C@@H]1NC(=O)[C@@H]2CSSC[C@H](NC(=O)[C@H](CCCNC(=N)N)NC(=O)[C@@H]3CSSC[C@H](NC1=O)C(=O)N[C@@H]([C@@H](C)O)C(=O)N[C@@H](CCCNC(=N)N)C(=O)NCC(=O)N[C@@H](Cc1ccccc1)C(=O)N3)C(=O)N[C@@H](CC(C)C)C(=O)N[C@H]1CSSC[C@H](NC(=O)[C@H](C(C)C)NC(=O)CNC(=O)[C@H](CCCNC(=N)N)NC(=O)[C@H](CCCNC(=N)N)NC1=O)C(=O)N[C@@H](CCCNC(=N)N)C(=O)N2 [Peptide 1] (cyclo(GFCRCLCRRGVCRCICTR); disulfide 3-16, 5-14, 7-12) ... 10700 ng·h/mL

* * *

Test: in vivo
Settings: both, Sprague-Dawley, rat, iv, 20 mg/kg
Where a SMILES comes first, the peptide text is derived from it. Bridges are numbered along the chain shown (N, C = ends).
assay-readout: clearance (mL/min/kg)

CC[C@H](C)[C@@H]1NC(=O)[C@@H]2CSSC[C@H](NC(=O)[C@H](CCCNC(=N)N)NC(=O)[C@@H]3CSSC[C@H](NC1=O)C(=O)N[C@@H]([C@@H](C)O)C(=O)N[C@@H](CCCNC(=N)N)C(=O)NCC(=O)N[C@@H](Cc1ccccc1)C(=O)N3)C(=O)N[C@@H](CC(C)C)C(=O)N[C@H]1CSSC[C@H](NC(=O)[C@H](C(C)C)NC(=O)CNC(=O)[C@H](CCCNC(=N)N)NC(=O)[C@H](CCCNC(=N)N)NC1=O)C(=O)N[C@@H](CCCNC(=N)N)C(=O)N2 [Peptide 1] (cyclo(GFCRCLCRRGVCRCICTR); disulfide 3-16, 5-14, 7-12) ... 2.62

* * *

Experiment: in vivo
Settings: both, cynomolgus monkey, iv, 15 mg/kg/day, AUCτ, cynomolgus, 15 mg/kg/day i.v., Day 4, mean
Where a SMILES comes first, the peptide text is derived from it. Bridges are numbered along the chain shown (N, C = ends).
assay-readout: AUC (µg·h/mL)

CC[C@H](C)[C@@H]1NC(=O)[C@@H]2CSSC[C@H](NC(=O)[C@H](CCCNC(=N)N)NC(=O)[C@@H]3CSSC[C@H](NC1=O)C(=O)N[C@@H]([C@@H](C)O)C(=O)N[C@@H](CCCNC(=N)N)C(=O)NCC(=O)N[C@@H](Cc1ccccc1)C(=O)N3)C(=O)N[C@@H](CC(C)C)C(=O)N[C@H]1CSSC[C@H](NC(=O)[C@H](C(C)C)NC(=O)CNC(=O)[C@H](CCCNC(=N)N)NC(=O)[C@H](CCCNC(=N)N)NC1=O)C(=O)N[C@@H](CCCNC(=N)N)C(=O)N2 [Peptide 1] (cyclo(GFCRCLCRRGVCRCICTR); disulfide 3-16, 5-14, 7-12) ... 140
